Tested on: KRAS G12C mutant NCI-H358 cells
ASSAY_REMARKS: Cell proliferation inhibition experiment, 3D spheroid, CellTiter-Glo, NCI-H358
Assay type: cell-based, human
CONDITION_SUMMARY: Homo sapiens, NCI-H358, 120 h, NCI-H358 (KRAS G12C mutant) 3D spheroid, 5 days with compound, CellTiter-Glo; read-out: H358 IC50
pIC50: −log10 of the molar value.
pIC50 listing for selected compounds.
PROPERTY_LABEL: pIC50

[
  {
    "COMPOUND": "C=CC(=O)N1CCN2C(=O)c3c(N4C[C@H](N5CCOCC5)CC4(C)C)nc(-c4c(O)cccc4F)c(Cl)c3OC[C@H]2C1 (single isomer, unassigned)",
    "PROPERTY_LABEL": "pIC50",
    "DATA_VALUE": 9.00
  },
  {
    "COMPOUND": "C=CC(=O)N1CCN2C(=O)c3c(N4CCC[C@]4(C)CO)nc(-c4c(O)cccc4F)c(Cl)c3OC[C@H]2C1",
    "PROPERTY_LABEL": "pIC50",
    "DATA_VALUE": 6.73
  },
  {
    "COMPOUND": "C=CC(=O)N1CCN2C(=O)c3c(N4CCN(C(C)=O)C[C@@H]4C)nc(-c4c(O)cccc4F)c(Cl)c3OC[C@H]2C1",
    "PROPERTY_LABEL": "pIC50",
    "DATA_VALUE": 8.80
  },
  {
    "COMPOUND": "C=CC(=O)N1CCN2C(=O)c3c(N4CCC[C@@]4(C)CO)nc(-c4c(O)cccc4F)c(Cl)c3OC[C@H]2C1",
    "PROPERTY_LABEL": "pIC50",
    "DATA_VALUE": 8.42
  },
  {
    "COMPOUND": "C=CC(=O)N1CCN2C(=O)c3c(N4CCN(C)[C@@H](C)[C@@H]4C)nc(-c4ccccc4F)c(Cl)c3OC[C@H]2C1",
    "PROPERTY_LABEL": "pIC50",
    "DATA_VALUE": 7.56
  },
  {
    "COMPOUND": "C=CC(=O)N1CCN2C(=O)c3c(N4CCOC(C)(C)C4)nc(-c4c(C)ccc5[nH]ncc45)c(F)c3OC[C@H]2C1",
    "PROPERTY_LABEL": "pIC50",
    "DATA_VALUE": 6.55
  },
  {
    "COMPOUND": "C=CC(=O)N1CCN2C(=O)c3c(N4CCOC[C@@H]4CC)nc(-c4c(O)cccc4F)c(Cl)c3OC[C@H]2C1",
    "PROPERTY_LABEL": "pIC50",
    "DATA_VALUE": 7.44
  },
  {
    "COMPOUND": "C=CC(=O)N1CCN2C(=O)c3c(N4C[C@@H](N5CCOCC5)CC4(C)C)nc(-c4c(O)cccc4F)c(Cl)c3OC[C@H]2C1 (single isomer, unassigned)",
    "PROPERTY_LABEL": "pIC50",
    "DATA_VALUE": 9.00
  },
  {
    "COMPOUND": "C=CC(=O)N1CCN2C(=O)c3c(N4C[C@H](O)C[C@@H]4C)nc(-c4c(O)cccc4F)c(Cl)c3OC[C@H]2C1",
    "PROPERTY_LABEL": "pIC50",
    "DATA_VALUE": 7.54
  }
]

---

System: KRAS G12C mutant NCI-H358 cells
ASSAY_REMARKS: Cell proliferation inhibition experiment, 3D spheroid, CellTiter-Glo, NCI-H358
Assay type: cell-based, human
CONDITION_SUMMARY: Homo sapiens, NCI-H358, 120 h, NCI-H358 (KRAS G12C mutant) 3D spheroid, 5 days with compound, CellTiter-Glo; read-out: H358 IC50
Measured IC50, listed per entry for reference.

[
  {
    "MOLECULE": "C=CC(=O)N1CCN2C(=O)c3c(N4C[C@@H](O)CC4(C)C)nc(-c4c(O)cccc4F)c(Cl)c3OC[C@H]2C1 (single isomer, unassigned)",
    "UNIT_OF_MEASUREMENT": "nM",
    "IC50": 1
  },
  {
    "MOLECULE": "C=CC(=O)N1CCN2C(=O)c3c(N4C[C@@H](N(C)CC(F)(F)F)CC4(C)C)nc(-c4ccccc4F)c(Cl)c3OC[C@H]2C1 (single isomer, unassigned)",
    "UNIT_OF_MEASUREMENT": "nM",
    "IC50": 1.4
  },
  {
    "MOLECULE": "C=CC(=O)N1CCN2C(=O)c3c(N4CCN(C5COC5)C[C@@H]4C)nc(-c4c(O)cccc4F)c(Cl)c3OC[C@H]2C1 (single isomer, unassigned)",
    "UNIT_OF_MEASUREMENT": "nM",
    "IC50": 15
  },
  {
    "MOLECULE": "C=CC(=O)N1CCN2C(=O)c3c(N4CC(=O)N(CC)C[C@@H]4C)nc(-c4c(O)cccc4F)c(Cl)c3OC[C@H]2C1",
    "UNIT_OF_MEASUREMENT": "nM",
    "IC50": 2.3
  },
  {
    "MOLECULE": "C=CC(=O)N1CCN2C(=O)c3c(N4CCN(C)C(C)C4C)nc(-c4c(O)cccc4F)c(Cl)c3OC[C@H]2C1 (stereo partly shown)",
    "UNIT_OF_MEASUREMENT": "nM",
    "IC50": 3.6
  },
  {
    "MOLECULE": "C=CC(=O)N1CCN2C(=O)c3c(N4C[C@@H](N5CC(F)C5)CC4(C)C)nc(-c4ccccc4F)c(Cl)c3OC[C@H]2C1",
    "UNIT_OF_MEASUREMENT": "nM",
    "IC50": 3.4
  },
  {
    "MOLECULE": "C=CC(=O)N1CCN2C(=O)c3c(N4CCO[C@](C)(CO)C4)nc(-c4c(O)cccc4F)c(Cl)c3OC[C@H]2C1 (single isomer, unassigned)",
    "UNIT_OF_MEASUREMENT": "nM",
    "IC50": 26
  },
  {
    "MOLECULE": "C=CC(=O)N1CCN2C(=O)c3c(N4CCN(C(=O)CC)C[C@@H]4C)nc(-c4ccccc4F)c(Cl)c3OC[C@H]2C1",
    "UNIT_OF_MEASUREMENT": "nM",
    "IC50": 8.1
  },
  {
    "MOLECULE": "C=CC(=O)N1CCN2C(=O)c3c(N4CCC[C@@H]4C)nc(-c4c(O)cccc4F)c(Cl)c3OC[C@H]2C1",
    "UNIT_OF_MEASUREMENT": "nM",
    "IC50": 4
  },
  {
    "MOLECULE": "C=CC(=O)N1CCN2C(=O)c3c(N4CCC5(CC5)C4)nc(-c4c(O)cccc4F)c(Cl)c3OC[C@H]2C1",
    "UNIT_OF_MEASUREMENT": "nM",
    "IC50": 26
  },
  {
    "MOLECULE": "C=CC(=O)N1CCN2C(=O)c3c(N4CCN(C)[C@H](C)C4)nc(-c4c(O)cccc4F)c(Cl)c3OC[C@H]2C1",
    "UNIT_OF_MEASUREMENT": "nM",
    "IC50": 21
  },
  {
    "MOLECULE": "C=CC(=O)N1CCN2C(=O)c3c(N4CC(N5CCN(C)CC5)CC4(C)C)nc(-c4ccccc4F)c(F)c3OC[C@H]2C1 (stereo partly shown)",
    "UNIT_OF_MEASUREMENT": "nM",
    "IC50": 9
  },
  {
    "MOLECULE": "C=CC(=O)N1CCN2C(=O)c3c(N4CC[C@@H](N(C)C)C4(C)C)nc(-c4c(O)cccc4F)c(Cl)c3OC[C@H]2C1 (single isomer, unassigned)",
    "UNIT_OF_MEASUREMENT": "nM",
    "IC50": 11.8
  }
]

---

Test system: KRAS G12C mutant NCI-H358 cells
ASSAY_REMARKS: Cell proliferation inhibition experiment, 3D spheroid, CellTiter-Glo, NCI-H358
Assay type: cell-based, human
CONDITION_SUMMARY: Homo sapiens, NCI-H358, 120 h, NCI-H358 (KRAS G12C mutant) 3D spheroid, 5 days with compound, CellTiter-Glo; read-out: H358 IC50
pIC50: −log10 of the molar value.
PROPERTY_LABEL: pIC50

[
  {
    "COMPOUND": "C=CC(=O)N1CCN2C(=O)c3c(N4[C@@H]5CC[C@H]4COC5)nc(-c4c(O)cccc4F)c(Cl)c3OC[C@H]2C1 [Z38]",
    "PROPERTY_LABEL": "pIC50",
    "DATA_VALUE": 7.26
  },
  {
    "COMPOUND": "C=CC(=O)N1CCN2C(=O)c3c(N4C[C@@H](N(C)C)CC4(C)C)nc(-c4c(O)cccc4F)c(Cl)c3OC[C@H]2C1 (single isomer, unassigned) [Z324-1]",
    "PROPERTY_LABEL": "pIC50",
    "DATA_VALUE": 8.89
  },
  {
    "COMPOUND": "C=CC(=O)N1CCN2C(=O)c3c(N4C[C@@H](N5CCN(C)CC5)CC4(C)C)nc(-c4ccccc4F)c(F)c3OC[C@H]2C1 (single isomer, unassigned) [Z474-1]",
    "PROPERTY_LABEL": "pIC50",
    "DATA_VALUE": 8.08
  },
  {
    "COMPOUND": "C=CC(=O)N1CCN2C(=O)c3c(N4CCC(N(C)C)C4(C)C)nc(-c4c(O)cccc4F)c(Cl)c3OC[C@H]2C1 (stereo partly drawn) [Z334]",
    "PROPERTY_LABEL": "pIC50",
    "DATA_VALUE": 8.05
  },
  {
    "COMPOUND": "C=CC(=O)N1CCN2C(=O)c3c(N[C@@H](C)c4ccccc4)nc(-c4c(O)cccc4F)c(Cl)c3OC[C@H]2C1 [Z29]",
    "PROPERTY_LABEL": "pIC50",
    "DATA_VALUE": 7.52
  },
  {
    "COMPOUND": "C=CC(=O)N1CCN2C(=O)c3c(N4C[C@H](N5CCC5)CC4(C)C)nc(-c4ccccc4F)c(Cl)c3OC[C@H]2C1 (single isomer, unassigned) [Z471-2]",
    "PROPERTY_LABEL": "pIC50",
    "DATA_VALUE": 7.04
  },
  {
    "COMPOUND": "C=CC(=O)N1CCN2C(=O)c3c(N4C[C@H](N5CC(F)C5)CC4(C)C)nc(-c4ccccc4F)c(F)c3OC[C@H]2C1 [Z654-2]",
    "PROPERTY_LABEL": "pIC50",
    "DATA_VALUE": 7.82
  },
  {
    "COMPOUND": "C=CC(=O)N1CCN2C(=O)c3c(N4CC[C@H](OC)C4(C)C)nc(-c4c(O)cccc4F)c(F)c3OC[C@H]2C1 (single isomer, unassigned) [Z327-2]",
    "PROPERTY_LABEL": "pIC50",
    "DATA_VALUE": 8.08
  },
  {
    "COMPOUND": "C=CC(=O)N1CCN2C(=O)c3c(N4CC(N5CCN(C)CC5)CC4(C)C)nc(-c4c(O)cccc4F)c(Cl)c3OC[C@H]2C1 (stereo partly drawn) [Z467]",
    "PROPERTY_LABEL": "pIC50",
    "DATA_VALUE": 9.10
  },
  {
    "COMPOUND": "C=CC(=O)N1CCN2C(=O)c3c(N4Cc5cn(C)nc5C4C)nc(-c4c(O)cccc4F)c(Cl)c3OC[C@H]2C1 (stereo partly drawn) [Z291-2]",
    "PROPERTY_LABEL": "pIC50",
    "DATA_VALUE": 8.46
  },
  {
    "COMPOUND": "C=CC(=O)N1CCN2C(=O)c3c(N4C[C@@H](O)CC4(C)C)nc(-c4ccccc4F)c(F)c3OC[C@H]2C1 (single isomer, unassigned) [Z408-1]",
    "PROPERTY_LABEL": "pIC50",
    "DATA_VALUE": 7.66
  },
  {
    "COMPOUND": "C=CC(=O)N1CCN2C(=O)c3c(N4C[C@H](N(C)C)CC4(C)C)nc(-c4c(O)cccc4F)c(Cl)c3OC[C@H]2C1 (single isomer, unassigned) [Z324-2]",
    "PROPERTY_LABEL": "pIC50",
    "DATA_VALUE": 8.36
  }
]
